system: P388; experiment: In vivo cytotoxicity against mouse P388 cells relative to control; type: functional
Form field: T/C (one value per entry).
Output spec: scalar in %, unitless text.

Look over these answered cases.
COc1cc2c(ccc3c4cc(OC)c(OC)cc4c[n+](C)c23)cc1O.[Cl-] [FAGARONINE] ... 270
Cc1cc2c(C(C)C)c(O)c(O)c(C=O)c2c(O)c1-c1c(C)cc2c(C(C)C)c(O)c(O)c(C=O)c2c1O [GOSSYPOL] ... 150
COc1cc2c[n+](C)c3c4cc(OC)c(OC)cc4ccc3c2cc1OC ... 200

Field: next molecule
Record request: T/C value, item CC(C)[C@](O)(C(=O)OCC1=CC[N+]2([O-])CC[C@@H](O)[C@@H]12)[C@H](C)O (some centres undefined) [INDICINE N-OXIDE]
262

---

tested on: KB; assay: Cytotoxicity against human KB cells; type: functional; details: read-out: ED50 (the source's name)
PROPERTY: EC50 (µg/mL)
Output spec: scalar in µg/mL, unitless text.

Look over these answered cases.
CC[C@@]1(O)C(=O)OCc2c1cc1n(c2=O)Cc2cc3ccccc3nc2-1 ... 2.3
COc1ccc2cc1Oc1ccc(cc1)C[C@H]1c3cc(c(OC)cc3CCN1C)Oc1c(OC)c(OC)cc3c1C(C2)N(C)CC3 (mixture of isomers) ... 22
CC[C@]1(O)C[C@H]2CN(CCc3c([nH]c4ccccc34)[C@@](C(=O)OC)(c3cc4c(cc3OC)N(C=O)[C@H]3[C@@](O)(C(=O)OC)[C@H](OC(C)=O)[C@]5(CC)C=CCN6CC[C@]43[C@@H]65)C2)C1 ... 1.3

Record request: EC50 value, item Cc1c2ccncc2c(C)c2c1[nH]c1ccccc12
0.36

Record: COc1cc2c(c(OC)c1OC)-c1ccc(OC)c(=O)cc1[C@@H](NC(C)=O)CC2
0.23

Record: CC(=O)O[C@H]1C(=O)O[C@@H]2C[C@H]3C(C)=CC(=O)[C@@H](O)[C@]3(C)[C@H]3[C@]4(O)OC[C@]32[C@@H]1[C@@H](C)[C@H]4O
6.8

---

Form field: EC50 (one value per entry).
test system: KB; experiment: Cytotoxicity against human KB cells; assay type: functional; settings: read-out: ED50 (the source's name)
Output spec: scalar in µg/mL, unitless text.

Look over these answered cases.
CC(C)[C@]12O[C@H]1[C@@H]1O[C@]13[C@]1(O[C@H]1C[C@H]1C4=C(CC[C@@]13C)C(=O)OC4)[C@@H]2O [TRIPTOLIDE] ... 2.6
COc1cc(C[C@H]2c3cc(OC)c(OC)cc3CCN2C)c(Oc2cc3c(cc2OC)-c2c(OC)c(OC)cc4c2[C@H](C3)N(C)CC4)cc1OC ... 3.7

State its EC50 on KB: COc1cc2c3c(c4ccc(OC)c(OC)c4c2cc1OC)CN1CCC[C@@H]1C3
0.013

---

system: KB; experiment: Cytotoxicity against human KB cells; type: functional; settings: read-out: ED50 (the source's name)
y if EC50 is below 9 µg/mL. n if not; exact matches included in n.

Answered cases to consult:
COc1ccc2[nH]c3c(C)c4ccncc4c(C)c3c2c1 ... y
CC(C)[C@]12O[C@H]1[C@@H]1O[C@]13[C@]1(O[C@H]1C[C@H]1C4=C(C(=O)OC4)[C@@H](O)C[C@@]13C)[C@@H]2O [TRIPDIOLIDE] ... y
COC(=O)[C@@]12OC[C@]34[C@H]([C@@H](O)[C@@H]1O)[C@@]1(C)CC(=O)C(O)=C(C)[C@@H]1C[C@H]3OC(=O)[C@H](OC(=O)/C=C(\C)C(C)C)[C@@H]24 [BRUCEANTIN] ... n
CN[C@H]1CCc2cc(OC)c(OC)c(OC)c2-c2ccc(OC)c(=O)cc21 ... y
COc1cc2c[n+](C)c3c4cc5c(cc4ccc3c2cc1OC)OCO5.[Cl-] [NITIDINE CHLORIDE] ... y

Dear colleague, could you confirm whether EC50 of COc1cc2cc(c1Cl)N(C)C(=O)C[C@H](OC(=O)[C@H](C)N(C)C(C)=O)[C@]1(C)O[C@H]1[C@H](C)[C@@H]1C[C@@](O)(NC(=O)O1)[C@H](OC)/C=C/C=C(\C)C2 falls below 9 µg/mL? Thanks.
y

Record: COc1cc([C@@H]2c3cc4c(cc3[C@H](O)[C@H]3COC(=O)[C@H]23)OCO4)cc(OC)c1OC
y

Record: COC(=O)C[C@](O)(CCCC(C)(C)O)C(=O)O[C@@H]1C(OC)=C[C@]23CCCN2CCc2cc4c(cc2[C@H]13)OCO4 [OMACETAXINE MEPESUCCINATE]
y

---

Form field: EC50 (one value per entry).
tested on: KB; test: Cytotoxicity against human KB cells; format: functional; conditions: read-out: ED50 (the source's name)
Output spec: scalar in µg/mL, unitless text.

CC(=O)O[C@H]1C(=O)[C@@]2(C)[C@H]([C@H](OC(=O)c3ccccc3)[C@]3(O)C[C@H](OC(=O)[C@H](O)[C@@H](NC(=O)c4ccccc4)c4ccccc4)C(C)=C1C3(C)C)[C@]1(OC(C)=O)CO[C@@H]1C[C@@H]2O ... 8.9
COc1ccc(C[C@H]2C(=O)N[C@@H](C)C(=O)N(C)[C@@H]3C(=O)N(C)[C@@H](Cc4ccc(O)c(c4)Oc4ccc(cc4)[C@@H]3O)C(=O)N[C@@H](C)C(=O)N[C@@H](C)C(=O)N2C)cc1 ... 8.8

Field: next molecule
State its EC50 on KB: COc1ccc2cc1Oc1ccc(cc1)C[C@H]1c3cc(c(OC)cc3CCN1C)Oc1c(OC)c(OC)cc3c1[C@@H](C2)N(C)CC3
10
